The values you see were collected from patent US7799775B2.

Quick reference: inhibition at 0.1 µM of the listed items.
Measured target: human 5-HT1A receptor (Homo sapiens, UniProt P08908)
Construct: purchased Packard Bioscience; host or cells: CHO cells (membrane preparation)
Measurement description: Affinity measurement of the compounds to human 5-HT1A receptor (in vitro), [3H]8-OH-DPAT binding
Experimental context: test compound 100 nmols/L; [3H]8-OH-DPAT 0.25 nmols/L; CHO cell membrane expressing human 5-HT1A receptor; read-out: Percent Inhibition (%) on Each Receptor's Binding at 10^−7M, 5-HT1A
Write the answer as a number in %, unit excluded.

Examples with answers:
NNc1cccc2nc(CCCCN3CCN(c4ccc5ccccc5n4)CC3)n(N)c(=O)c12	97.6
Nn1c(CCCCN2CCN(c3ccc4ccccc4n3)CC2)nc2cccc(Cl)c2c1=O	99.4
Cc1cc2c(N3CCN4CCC[C@H]4C3)nccc2s1	98.5
O[C@@H]1C[C@H]2CN(c3nccc4ccoc34)CCN2C1	48
Cc1sc2nc(SCCCN3CCN(c4ccccn4)CC3)[nH]c(=O)c2c1C	60.8
COc1ccc2ccnc(N3CCN4CCC[C@H]4C3)c2c1	96.7
CN1CCN(c2nccc3cccnc23)CC1	83.2
CC1CCc2nc(CCCCN3CCN(c4ccc5ccccc5n4)CC3)n(C)c(=O)c2C1 (stereo not drawn)	96

inhibition at 0.1 µM lookup needed for Nn1c(CCCCN2CCN(c3ccc4ccccc4n3)CC2)nc2ccsc2c1=O , thanks.
98

###

Quick reference: BC Inhibition (%) of the listed items.
Measured target: 5-HT3 receptor (Rattus norvegicus)
Construct: from tissue; host or cells: whole animal (SD male rats), serotonin-induced bradycardia
Sequence (P35563 24-483): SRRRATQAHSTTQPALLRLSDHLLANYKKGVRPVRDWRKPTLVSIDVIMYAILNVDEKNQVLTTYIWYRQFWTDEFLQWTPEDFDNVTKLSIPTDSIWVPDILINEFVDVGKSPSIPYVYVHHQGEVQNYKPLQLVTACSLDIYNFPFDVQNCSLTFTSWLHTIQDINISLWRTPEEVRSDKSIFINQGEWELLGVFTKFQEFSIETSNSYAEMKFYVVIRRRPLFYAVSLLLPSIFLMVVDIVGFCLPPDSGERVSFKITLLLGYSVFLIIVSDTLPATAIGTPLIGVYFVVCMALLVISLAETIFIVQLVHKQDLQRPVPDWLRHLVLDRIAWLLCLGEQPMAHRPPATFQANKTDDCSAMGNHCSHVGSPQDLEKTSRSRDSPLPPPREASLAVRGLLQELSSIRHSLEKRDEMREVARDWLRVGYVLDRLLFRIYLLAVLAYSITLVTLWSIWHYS
Measurement description: Measurement of 5-HT3 receptor antagonistic action on rats (in vivo): inhibition of serotonin-induced bradycardia (BJ reflex)
Experimental context: anesthetized SD male rats, dose 1.0 mg/kg intravenous, serotonin 300 μg/kg 10 minutes later
Write the answer as a number in %, unit excluded.

COc1ccc2ccnc(N3CCNCC3)c2c1	92.0
CN1CCN(c2nccc3ccc(Cl)cc23)CC1	86.8
CCn1c(CCCCN2CCN(c3cc(C)c4ccccc4n3)CC2)nc2c(c1=O)CCCC2	85.4
COc1ccc2ccnc(N3CCNC(C)C3)c2c1 (stereo not drawn)	82.9

BC Inhibition (%) lookup needed for c1ccc2c(N3CCNCC3)nccc2c1 , thanks.
94.6

BC Inhibition (%) lookup needed for Cc1ccc2ccnc(N3CCNCC3)c2c1 , thanks.
94.4

###

Measured target: human 5-HT1A receptor (Homo sapiens)
Construct: purchased Packard Bioscience; host or cells: CHO cells (membrane preparation)
Sequence (P08908 1-422): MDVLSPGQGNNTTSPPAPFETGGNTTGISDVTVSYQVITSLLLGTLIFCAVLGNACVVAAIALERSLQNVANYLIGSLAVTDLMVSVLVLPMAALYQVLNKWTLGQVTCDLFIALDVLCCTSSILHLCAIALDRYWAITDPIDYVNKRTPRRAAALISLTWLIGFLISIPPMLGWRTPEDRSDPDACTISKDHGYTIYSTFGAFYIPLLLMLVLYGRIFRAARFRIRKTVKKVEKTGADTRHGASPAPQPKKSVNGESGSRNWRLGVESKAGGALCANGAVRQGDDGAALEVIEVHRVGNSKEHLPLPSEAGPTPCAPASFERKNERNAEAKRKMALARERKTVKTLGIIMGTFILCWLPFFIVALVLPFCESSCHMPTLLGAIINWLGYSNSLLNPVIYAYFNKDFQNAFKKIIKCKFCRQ
Measurement description: Affinity measurement of the compounds to human 5-HT1A receptor (in vitro), [3H]8-OH-DPAT binding
Experimental context: test compound 100 nmols/L; [3H]8-OH-DPAT 0.25 nmols/L; CHO cell membrane expressing human 5-HT1A receptor; read-out: Percent Inhibition (%) on Each Receptor's Binding at 10^−7M, 5-HT1A
Parameter: inhibition at 0.1 µM

Cn1c(CCCCN2CCN(c3ccc4ccccc4n3)CC2)nc2c(cnn2C)c1=O [Example 7-19]	85%
O[C@@H]1C[C@H]2CN(c3nccc4ccsc34)CCN2C1 [Production Example 112]	53.9%
CN1CCN(c2nccc3c(Cl)cccc23)CC1 [Production Example 61]	25.3%
Cn1c(CCCCN2CCN(c3ccc4ccccc4n3)CC2)nc2c(c1=O)CCCC2 [Example 7-1]	97.5%
Nn1c(CCCCN2CCN(c3ccc4ccccc4n3)CC2)nc2c(c1=O)CC(O)CC2 (stereo not drawn) [Example 4-70]	96.1%
Brc1cc2c(N3CCN4CCC[C@H]4C3)nccc2s1 [Production Example 106]	101%

inhibition at 0.1 µM lookup needed for Nn1c(CCCCN2CCN(c3ccc4ccccc4n3)CC2)nc2c(c1=O)CCCCC2 [Example 4-42] , thanks.
95.8%

inhibition at 0.1 µM lookup needed for Cc1cc2c(N3CCNCC3)nccc2o1 [Production Example 25] , thanks.
83.2%

inhibition at 0.1 µM lookup needed for CCn1c(CCCCN2CCN(c3ccc4ccccc4n3)CC2)nc2c(c1=O)CCCC2 [Example 7-2] , thanks.
93.3%

inhibition at 0.1 µM lookup needed for Cc1sc2nc(SCCCN3CCN(c4ccc5ccccc5n4)CC3)n(N)c(=O)c2c1C [Example 1-1] , thanks.
94.5%

inhibition at 0.1 µM lookup needed for Cc1sc2nc(CCCCN3CCN(c4ccc5ccccc5n4)CC3)n(C)c(=O)c2c1C [Example 7-23] , thanks.
77%

inhibition at 0.1 µM lookup needed for Cc1cc(N2CCN(CCCNc3nc4c(c(=O)[nH]3)CCCC4)CC2)nc2ccccc12 [Example 5-3] , thanks.
76%

inhibition at 0.1 µM lookup needed for CCCn1c(CCCCN2CCN(c3ccc4ccccc4n3)CC2)nc2c(c1=O)CCCC2 [Example 7-3] , thanks.
85.8%

inhibition at 0.1 µM lookup needed for c1cc2ccoc2c(N2CCN3CCC[C@H]3C2)n1 [Production Example 102] , thanks.
95.4%

inhibition at 0.1 µM lookup needed for COc1ccc2ccnc(N3CCN4CCCCC4C3)c2c1 (stereo not drawn) [Production Example 81] , thanks.
95.8%

inhibition at 0.1 µM lookup needed for Cc1ccc2c(=O)n(C)c(CCCCN3CCN(c4ccc5ccccc5n4)CC3)nc2c1 [Example 7-24] , thanks.
78.3%

inhibition at 0.1 µM lookup needed for O=c1[nH]c(NCCCN2CCN(c3ccc4ccccc4n3)CC2)nc2c1CCCC2 [Example 5-1] , thanks.
74%

inhibition at 0.1 µM lookup needed for Fc1ccc(COc2ccc3ccnc(N4CCNCC4)c3c2)cc1 [Production Example 98] , thanks.
88.2%
